Target: SaveOBP9 (Sitobion avenae)
Run Description: Fluorescence competitive ligand binding assay with probe 1-NPN
Stated Conditions: pH 7.4; 1-NPN probe; read-out: Ki
Metric: Ki (µM)

Lab book: Ki of C=C(C)[C@@H]1CC=C(C)CC1 [S-(−)-Limonene] noted as 28.5

Lab book: Ki of C=C/C(C)=C/C/C=C(\C)CCC=C(C)C noted as 9.11

[P] CCCCCCCC=O
[Q] C=CC(O)CCCCC (stereo not shown)
[ask] Given the two records P and Q , choose the one whose Ki value is lower. # respond with the chosen item's label
[reply] P

----------
Target: SaveOBP9 (Sitobion avenae)
Run Description: Fluorescence competitive ligand binding assay with probe 1-NPN
Stated Conditions: Ki, pH 7.4; 1-NPN probe
Listing of recorded Ki by entry.
A number alone suffices; assume µM.

Known Ki results, listed for orientation:
Here C=CCCN=C=S [3-Butenyl isothiocyanate] was tested on SaveOBP9 (Sitobion avenae), and its Ki came to 46.8

Here C=CC(C)(O)CCC=C(C)C (stereo not drawn) [Linalool] was tested on SaveOBP9 (Sitobion avenae), and its Ki came to 21.4

Here CC1=CC[C@@H](C(C)(C)O)CC1 [α-Terpineol] was tested on SaveOBP9 (Sitobion avenae), and its Ki came to 23.3

Here CCC/C=C/C=O [trans-2-Hexen-1-al] was tested on SaveOBP9 (Sitobion avenae), and its Ki came to 37.2

Here C=C1CCC2CC1C2(C)C (stereo not drawn) [β -Pinene] was tested on SaveOBP9 (Sitobion avenae), and its Ki came to 33.2

Continue with the next compound.
Here CCC/C=C/CO [trans-2-Hexen-1-ol] was tested on SaveOBP9 (Sitobion avenae), and its Ki came to 12.9

----------
Listing of recorded Ki by entry.
Target: UniProt:A0A1I9ZLB6
Run Description: Fluorescence competitive ligand binding assay with probe 1-NPN
Stated Conditions: Ki, pH 7.4; 1-NPN probe
A number alone suffices; assume µM.

Known Ki results, listed for orientation:
Lab book: Ki of CCCCCC=O noted as 7.31

Lab book: Ki of CC1=CCC2CC1C2(C)C (stereo not shown) noted as 33.7

Lab book: Ki of COC(=O)c1ccccc1O [Methyl salicylate] noted as 11.9

Continuing:
Lab book: Ki of O=Cc1ccccc1 noted as 96.5

Lab book: Ki of c1ccc2ccccc2c1 noted as 11.5

Lab book: Ki of C=C1CC/C=C(\C)CC[C@@H]2[C@@H]1CC2(C)C noted as 46.6

Lab book: Ki of CC/C=C\CCO [cis-3-Hexen-1-ol] noted as 11.8

----------
Listing of recorded pIC50 by entry.
Target: SaveOBP9 (Sitobion avenae, UniProt A0A1I9ZLB6)
Sequence (A0A1I9ZLB6 entry or part of it): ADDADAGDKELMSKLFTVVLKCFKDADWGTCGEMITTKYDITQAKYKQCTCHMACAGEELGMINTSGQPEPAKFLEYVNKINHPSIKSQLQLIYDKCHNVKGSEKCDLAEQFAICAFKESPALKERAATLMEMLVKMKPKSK
Run Description: Fluorescence competitive ligand binding assay with probe 1-NPN
Stated Conditions: IC50, pH 5.0; 1-NPN probe
Just the number, please; pIC50 means minus log10 of the concentration in mol/L.

Known pIC50 results, listed for orientation:
Lab book: pIC50 of COC(=O)c1ccccc1O [Methyl salicylate] noted as 4.62

Lab book: pIC50 of C=CCCN=C=S [3-Butenyl isothiocyanate] noted as 4.58

Lab book: pIC50 of CC1=CC[C@@H](C(C)(C)O)CC1 [α-Terpineol] noted as 4.43

Lab book: pIC50 of O=Cc1ccccc1 [Benzaldehyde] noted as 4.39

Lab book: pIC50 of C=C1CCC2CC1C2(C)C (stereo not drawn) [β -Pinene] noted as 4.56

Lab book: pIC50 of CCC/C=C/CO [trans-2-Hexen-1-ol] noted as 4.66

Continue with the next compound.
Lab book: pIC50 of CCC/C=C/C=O [trans-2-Hexen-1-al] noted as 4.67

----------
Target: SaveOBP9 (Sitobion avenae, UniProt A0A1I9ZLB6)
Run Description: Fluorescence competitive ligand binding assay with probe 1-NPN
Stated Conditions: pH 7.4; 1-NPN probe; read-out: Ki
pKi: −log10 of the molar value.
Metric: pKi

Known pKi results, listed for orientation:
Here CC12CCC(CC1=O)C2(C)C (racemic) [(±)-Camphor] was tested on SaveOBP9 (Sitobion avenae, UniProt A0A1I9ZLB6), and its pKi came to 4.37

Here CC1=CCC2C(C1)C2(C)C (single isomer, unassigned; (+)) [(+)-3-Carene] was tested on SaveOBP9 (Sitobion avenae, UniProt A0A1I9ZLB6), and its pKi came to 4.88

Here CCCCCCCCCCCCCCCC was tested on SaveOBP9 (Sitobion avenae, UniProt A0A1I9ZLB6), and its pKi came to 5.01

[a] CCCCCCCCCCCCCC
[b] CC(=O)c1ccccc1
[ask] Between these two entries, a and b , state which has the higher pKi. # respond with the chosen item's label
[reply] a
(a: 5.15, b: 4.94)

[a] C=CC(=C)CCC=C(C)C
[b] CC/C=C\CCOC(C)=O [cis-3-Hexenyl acetate]
[ask] Given the two records a and b , choose the one whose pKi value is lower. # respond with the chosen item's label
[reply] b

----------
Target: SaveOBP9 (Sitobion avenae, UniProt A0A1I9ZLB6)
Run Description: Fluorescence competitive ligand binding assay with probe 1-NPN
Stated Conditions: pH 5.0; 1-NPN probe; read-out: IC50
pIC50: −log10 of the molar value.
Metric: pIC50

Lab book: pIC50 of CCCCCCCCCCCCCCCC [Hexadecane] noted as 4.83

Lab book: pIC50 of C=CC(O)CCCCC (stereo not drawn) [1-Octen-3-ol] noted as 4.47

Lab book: pIC50 of CCCCCCCC=O [Octanal] noted as 4.69

Lab book: pIC50 of CCCCCCCCCC=O [Decanal] noted as 4.70

Lab book: pIC50 of CCCCC(CC)CO (stereo not drawn) [2-Ethyl-1-hexanol] noted as 4.36

[1] CC(=O)c1ccccc1 [Acetophenone]
[2] CC12CCC(CC1=O)C2(C)C (racemic) [(±)-Camphor]
[ask] Between these two entries, 1 and 2 , state which has the higher pIC50. # respond with the chosen item's label
[reply] 2

----------
Target: SaveOBP9 (Sitobion avenae, UniProt A0A1I9ZLB6)
Run Description: Fluorescence competitive ligand binding assay with probe 1-NPN
Stated Conditions: pH 5.0; 1-NPN probe; read-out: IC50
Metric: IC50 (µM)

Known IC50 results, listed for orientation:
Lab book: IC50 of CCCCCCCCCCCCCC noted as 11.9

Lab book: IC50 of CCCCCCCCC=O noted as 12.3

Lab book: IC50 of C=C/C(C)=C/C/C=C(\C)CCC=C(C)C noted as 9.51

[1] Cc1cc(C(C)(C)C)c(O)c(C(C)(C)C)c1 [Butylated Hydroxytoluene]
[2] CC1=CCC2C(C1)C2(C)C (single isomer, unassigned; (+)) [(+)-3-Carene]
[3] CCCCCCCCCCCCCCC
[ask] Ascending by IC50, please: list the compounds accordingly. Output spec: labels arranged per the requested ranking.
[reply] 1, 3, 2

----------
Target: SaveOBP9 (Sitobion avenae, UniProt A0A1I9ZLB6)
Run Description: Fluorescence competitive ligand binding assay with probe 1-NPN
Stated Conditions: IC50, pH 5.0; 1-NPN probe
Metric: pIC50
Just the number, please; pIC50 means minus log10 of the concentration in mol/L.

Known pIC50 results, listed for orientation:
Lab book: pIC50 of CC/C=C\CCO [cis-3-Hexen-1-ol] noted as 4.43

Lab book: pIC50 of c1ccc2ccccc2c1 [Naphthalene] noted as 4.52

Lab book: pIC50 of CC1=CCC2CC1C2(C)C (stereo not drawn) [α-Pinene] noted as 4.57

Continuing:
Lab book: pIC50 of CCCCCC=O [Hexanal] noted as 4.77

Lab book: pIC50 of C=C1CC/C=C(\C)CC[C@@H]2[C@@H]1CC2(C)C [β-Caryophyllene] noted as 3.21

Lab book: pIC50 of C=CC(C)(O)CCC=C(C)C (stereo not drawn) [Linalool] noted as 4.93

----------
Target: SaveOBP9 (Sitobion avenae, UniProt A0A1I9ZLB6)
Run Description: Fluorescence competitive ligand binding assay with probe 1-NPN
Stated Conditions: pH 5.0; 1-NPN probe; read-out: Ki
Metric: Ki (µM)

Lab book: Ki of CCCCC(CC)CO (stereo not drawn) [2-Ethyl-1-hexanol] noted as 39.6

Lab book: Ki of CC1=CCC2C(C1)C2(C)C (single isomer, unassigned; (+)) [(+)-3-Carene] noted as 36.1

Lab book: Ki of CCCCCCCCCCCCCCCC [Hexadecane] noted as 13.2

Lab book: Ki of CC(=O)c1ccccc1 [Acetophenone] noted as 27.8

[I] CCCCCCCCCCCCCCC [Pentadecane]
[II] Cc1cc(C(C)(C)C)c(O)c(C(C)(C)C)c1 [Butylated Hydroxytoluene]
[III] C=CC(O)CCCCC (stereo not drawn) [1-Octen-3-ol]
[ask] Ranking field: Ki; order: falling. Output spec: labels arranged per the requested ranking.
[reply] III, I, II

[P] CCCCCCCCCCCCCC [Tetradecane]
[Q] CCCCCCCCCC=O [Decanal]
[ask] Given the two records P and Q , choose the one whose Ki value is lower. # respond with the chosen item's label
[reply] P

// data source = paper PMC7664216
